- assay notes: nonspecific calcium rise without TRPC4 – cell-based, HEK293 mu-opioid receptor line, counter-screen for TRPC4 activator project, confirmation (AID 449723);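 further: counter screen cells carry the mu-opioid receptor alone and lack TRPC4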
- condition details: HEK293 mu-opioid cells, Fluo-4 calcium fluorescence, at 10 µM
The source made the active and inactive calls.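 How the source made its calls: active means hit in primary screen, with calcium signal over 5 SD above buffer well mean in both duplicates; inactive means the rest.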
Your response should consist of one outcome taken from active, inactive

Use the examples below as a reference point.
CCN(CC)CCCN(C(=O)c1cccs1)c1nc(-c2ccc(OC)cc2)cs1	inactive
O=C(NCc1ccccc1)C1=C[C@H](c2ccc(C(F)(F)F)cc2)C[C@H](OCc2ccc(CO)cc2)O1	inactive
c1ccc(Cn2c(NCc3ccco3)nc3ccccc32)cc1	inactive

Prompt: Could you please tell me the result logged for CCCC1(c2ccccc2)NC(=O)N(CC(=O)c2[nH]c(C)c(C(=O)OCC)c2C)C1=O (stereo not given) in this assay?
Completion: inactive

Prompt: Next compound: CN(C)c1ccc(-c2sc(Nc3ccccc3)n[n+]2-c2ccc(F)cc2)cc1
Completion: active

Prompt: Next compound: CN(C)CCNC(=O)c1c(NC(=O)c2ccccc2)sc2c1CCCC2
Completion: inactive

Prompt: Next compound: NC(=O)c1nsc(C(=O)N(Cc2ccccc2F)C(C(=O)NCC2CCCO2)c2ccc(F)cc2)c1N (stereo not given)
Completion: inactive

Prompt: Next compound: COc1ccc(CNc2ccc(Cl)cc2)cc1Cn1ccnc1
Completion: inactive

Prompt: Next compound: COc1cc2c(C(=O)N3CCN(C)CC3)c(CSc3ccccc3)n(C)c2cc1Br
Completion: inactive

Prompt: Next compound: Cc1csc2c(N3CCN(C(=S)Nc4ccc(C(F)(F)F)cc4)CC3)ncnc12
Completion: inactive

* * *

- assay notes: nonspecific potentiation of DAMGO calcium response – cell-based, HEK293 mu-opioid receptor line, counter-screen for TRPC4 allosteric potentiator project, confirmation (AID 449724);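 further: HEK293 cells carrying mu-opioid receptor only with no TRPC4 channel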
- condition details: HEK293 mu-opioid receptor cells, Fluo-4 calcium flux, at 10 µM, compound added before EC20 DAMGO stimulus
Active and inactive are the calls of the source.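 The calls were made as follows: active = calcium signal rise more than 3 SD above the low-dose agonist control mean, in both duplicate plates and the primary screen; inactive = the rest.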
Your response should consist of one outcome taken from label 1 for active, label 0 for inactive

Use the examples below as a reference point.
Oc1ccc(-c2[nH]ncc2-c2ccc(Br)cc2)c(O)c1	label 0
CN(C)C(CNC(=S)Nc1ccc(Cl)cc1)c1cccnc1 (stereo not given)	label 0
O=C(NC(=S)NNC(=O)c1cccs1)c1ccc(Br)o1	label 0

Prompt: Could you please tell me the result logged for O=Cc1c(N2CCCCC2)nc2ccccn2c1=O in this assay?
Completion: label 0

Prompt: Next compound: CCOC(=O)c1ccc(NC(=O)NCCc2cnc[nH]2)cc1
Completion: label 0

Prompt: Next compound: CN(C)CCCN(Cc1cc2cc3c(cc2[nH]c1=O)OCO3)C(=S)NCc1ccco1
Completion: label 0

Prompt: Next compound: N#CCCn1cc(CNCc2ccccc2)c(-c2cccc([N+](=O)[O-])c2)n1
Completion: label 0

Prompt: Next compound: CCCCCCc1cc2cc(-c3nnc(-c4ccccc4O)o3)c(=O)oc2cc1O
Completion: label 1

* * *

- target or test system: Short transient receptor potential channel 4 (Mus musculus) (UniProt Q9QUQ5)
- Sequence (Q9QUQ5 whole entry, looked up): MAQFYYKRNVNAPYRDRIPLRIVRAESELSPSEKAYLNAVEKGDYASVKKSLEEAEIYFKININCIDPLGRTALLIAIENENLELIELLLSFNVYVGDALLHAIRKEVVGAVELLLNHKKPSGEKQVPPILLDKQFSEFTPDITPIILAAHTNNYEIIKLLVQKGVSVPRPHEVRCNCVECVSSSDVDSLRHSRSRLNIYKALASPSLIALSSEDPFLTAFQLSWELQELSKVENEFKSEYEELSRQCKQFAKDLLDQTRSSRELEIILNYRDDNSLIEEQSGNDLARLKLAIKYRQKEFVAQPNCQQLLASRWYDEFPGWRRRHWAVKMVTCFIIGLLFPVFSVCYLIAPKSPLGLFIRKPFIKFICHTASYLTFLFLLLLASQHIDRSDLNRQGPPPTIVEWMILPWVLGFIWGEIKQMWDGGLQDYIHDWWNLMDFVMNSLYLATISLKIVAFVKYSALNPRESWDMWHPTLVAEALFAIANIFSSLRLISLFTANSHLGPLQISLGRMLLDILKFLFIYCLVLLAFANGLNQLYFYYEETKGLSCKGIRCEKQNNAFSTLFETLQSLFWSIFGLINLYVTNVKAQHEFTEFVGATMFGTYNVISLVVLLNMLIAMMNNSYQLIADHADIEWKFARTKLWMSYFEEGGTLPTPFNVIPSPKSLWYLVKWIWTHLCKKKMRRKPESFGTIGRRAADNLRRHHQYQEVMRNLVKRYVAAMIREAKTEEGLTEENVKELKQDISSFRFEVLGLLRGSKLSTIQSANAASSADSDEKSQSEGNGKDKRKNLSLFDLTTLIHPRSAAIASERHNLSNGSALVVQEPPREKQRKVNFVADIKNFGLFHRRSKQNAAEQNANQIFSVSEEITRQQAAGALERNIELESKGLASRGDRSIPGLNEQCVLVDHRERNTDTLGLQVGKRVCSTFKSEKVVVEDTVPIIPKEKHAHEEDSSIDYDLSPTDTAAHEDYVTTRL
- assay notes: blockers of DAMGO-evoked TRPC4 calcium flux – cell-based, second round, Fluo4, HEK293 TRPC4beta/mu-opioid, 1 µM, confirmation (AID 2637)
- condition details: at 1 µM
The source made the active and inactive calls.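 How the source made its calls: active means calcium signal ratio cut to more than 3 SD under the fully stimulated control mean yet still positive, in both repeats and the primary screen; inactive means the rest.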
Your response should consist of one outcome taken from y for active, n for inactive

Use the examples below as a reference point.
CCOC(=O)C1(Cc2cccc(F)c2)CCN(Cc2cnn(CC)c2C)CC1	n
CCN1CCN(c2ccc(S(=O)(=O)N3CCCCC3)cc2NC(=O)c2cccc(OC(F)F)c2)CC1	n
CCOC(=O)c1ccc(NC(=O)NCCc2cnc[nH]2)cc1	n
CCCCn1c(NC(=O)c2ccccc2)nc2ccccc21	n
O=[N+]([O-])c1ccc(S(=O)(=O)NCCCc2ccccc2)cc1	n

Prompt: Could you please tell me the result logged for CCOC(=O)C1=C(C)N(C)C(=S)NC1c1cccc(Cl)c1Cl (stereo not given) in this assay?
Completion: n

Prompt: Next compound: Cc1cc(Br)c(NC(=O)CN(C)CCOc2ccccc2)c(Br)c1
Completion: n
